- PROCEDURE SUMMARY: AUC (0 to t) in Sprague-Dawley rat assessed as JBP485 level at 12 mg/kg equiv of JBP485 administered orally by UPLC-MS/MS analysis
- Assay type: ADME, organism-based
- ASSAY SETUP: in vivo, po
The molecules listed here are annotated with their AUCt.
ENDPOINT: AUCt

- CC(C)[C@H](N)C(=O)O[C@@H]1C[C@H]2C(=O)N[C@@H](CO)C(=O)N2C1: 139.78 nM/ml.hr
- N[C@@H](Cc1ccccc1)C(=O)OC[C@@H]1NC(=O)[C@@H]2C[C@@H](O)CN2C1=O: 33.9 nM/ml.hr
- CCC(C)[C@H](N)C(=O)OC[C@@H]1NC(=O)[C@@H]2C[C@@H](O)CN2C1=O (stereo not given in full): 122.65 nM/ml.hr
- CC(C)[C@H](N)C(=O)OC[C@@H]1NC(=O)[C@@H]2C[C@@H](O)CN2C1=O: 194.47 nM/ml.hr
- CC(C)C[C@H](N)C(=O)OC[C@@H]1NC(=O)[C@@H]2C[C@@H](O)CN2C1=O: 28.75 nM/ml.hr

====

- PROCEDURE SUMMARY: Terminal half-life in Sprague-Dawley rat at 6 mg/kg, iv by UPLC-MS/MS analysis
- Format: ADME, organism-based
- ASSAY SETUP: in vivo, read-out: beta t1/2 (converted)
ENDPOINT: half-life (h)

* O=C1N[C@@H](CO)C(=O)N2C[C@H](O)C[C@@H]12 | 1.13

====

- PROCEDURE SUMMARY: AUC (0 to t) in Sprague-Dawley rat assessed as JBP485 level at 100 mg/kg, po by LC-MS/MS analysis
- Assay type: ADME, organism-based
- ASSAY SETUP: in vivo
ENDPOINT: AUCt (µM·h)

* O=C1N[C@@H](CO)C(=O)N2C[C@H](O)C[C@@H]12 | 324

====

- PROCEDURE SUMMARY: Half life in pH 7.2 phosphate buffer at 5 mM by HPLC analysis
- Type: physicochemical
The molecules listed here are annotated with their half-life at 5000 µM.
ENDPOINT: half-life at 5000 µM (h)

- CC(C)C[C@H](N)C(=O)OC[C@@H]1NC(=O)[C@@H]2C[C@@H](O)CN2C1=O: 1.9
- N[C@@H](Cc1ccccc1)C(=O)OC[C@@H]1NC(=O)[C@@H]2C[C@@H](O)CN2C1=O: 2.3
- CC(C)[C@H](N)C(=O)O[C@@H]1C[C@H]2C(=O)N[C@@H](CO)C(=O)N2C1: 11.6
- CC(C)[C@H](N)C(=O)OC[C@@H]1NC(=O)[C@@H]2C[C@@H](O)CN2C1=O: 5.5
- CCC(C)[C@H](N)C(=O)OC[C@@H]1NC(=O)[C@@H]2C[C@@H](O)CN2C1=O (stereo partly specified): 9.6

====

- PROCEDURE SUMMARY: Terminal half-life in Sprague-Dawley rat assessed as JBP485 level at 12 mg/kg equiv of JBP485 administered orally by UPLC-MS/MS analysis
- Format: ADME, organism-based
- ASSAY SETUP: in vivo, po
The compounds listed here are annotated with their beta t1/2.
ENDPOINT: beta t1/2 (h)

* N[C@@H](Cc1ccccc1)C(=O)OC[C@@H]1NC(=O)[C@@H]2C[C@@H](O)CN2C1=O | 2.38
* CCC(C)[C@H](N)C(=O)OC[C@@H]1NC(=O)[C@@H]2C[C@@H](O)CN2C1=O (stereo not given in full) | 0.9
* CC(C)[C@H](N)C(=O)OC[C@@H]1NC(=O)[C@@H]2C[C@@H](O)CN2C1=O | 2.11
* CC(C)C[C@H](N)C(=O)OC[C@@H]1NC(=O)[C@@H]2C[C@@H](O)CN2C1=O | 2.23
* CC(C)[C@H](N)C(=O)O[C@@H]1C[C@H]2C(=O)N[C@@H](CO)C(=O)N2C1 | 2.51

====

- PROCEDURE SUMMARY: Terminal half life in Beagle dog at 12 mg/kg, po by UPLC-MS/MS analysis
- Type: ADME, organism-based, Canis lupus familiaris
- ASSAY SETUP: in vivo, read-out: beta t1/2 (converted)
ENDPOINT: half-life

• O=C1N[C@@H](CO)C(=O)N2C[C@H](O)C[C@@H]12 = 5.23 h

====

- PROCEDURE SUMMARY: Tmax in Sprague-Dawley rat at 12 mg/kg, po by UPLC-MS/MS analysis
- Format: ADME, organism-based
- ASSAY SETUP: in vivo
ENDPOINT: Tmax (h)

• O=C1N[C@@H](CO)C(=O)N2C[C@H](O)C[C@@H]12 = 1.25

====

- PROCEDURE SUMMARY: Ratio of half-life in pH 7.2 phosphate buffer to half-life in Sprague-Dawley rat intestinal homogenates
- Format: ADME, tissue-based
- ASSAY SETUP: tissue homogenate
The compounds listed here are annotated with their Ratio.
ENDPOINT: Ratio

- CCC(C)[C@H](N)C(=O)OC[C@@H]1NC(=O)[C@@H]2C[C@@H](O)CN2C1=O (stereo not given in full): 3 to 35
- CC(C)[C@H](N)C(=O)O[C@@H]1C[C@H]2C(=O)N[C@@H](CO)C(=O)N2C1: 3 to 35
- CC(C)C[C@H](N)C(=O)OC[C@@H]1NC(=O)[C@@H]2C[C@@H](O)CN2C1=O: 3 to 35
- CC(C)[C@H](N)C(=O)OC[C@@H]1NC(=O)[C@@H]2C[C@@H](O)CN2C1=O: 3 to 35
- N[C@@H](Cc1ccccc1)C(=O)OC[C@@H]1NC(=O)[C@@H]2C[C@@H](O)CN2C1=O: 3 to 35
